# assay.system: Protein-glutamine gamma-glutamyltransferase (Homo sapiens) (UniProt P21980)
# Sequence (P21980 whole entry): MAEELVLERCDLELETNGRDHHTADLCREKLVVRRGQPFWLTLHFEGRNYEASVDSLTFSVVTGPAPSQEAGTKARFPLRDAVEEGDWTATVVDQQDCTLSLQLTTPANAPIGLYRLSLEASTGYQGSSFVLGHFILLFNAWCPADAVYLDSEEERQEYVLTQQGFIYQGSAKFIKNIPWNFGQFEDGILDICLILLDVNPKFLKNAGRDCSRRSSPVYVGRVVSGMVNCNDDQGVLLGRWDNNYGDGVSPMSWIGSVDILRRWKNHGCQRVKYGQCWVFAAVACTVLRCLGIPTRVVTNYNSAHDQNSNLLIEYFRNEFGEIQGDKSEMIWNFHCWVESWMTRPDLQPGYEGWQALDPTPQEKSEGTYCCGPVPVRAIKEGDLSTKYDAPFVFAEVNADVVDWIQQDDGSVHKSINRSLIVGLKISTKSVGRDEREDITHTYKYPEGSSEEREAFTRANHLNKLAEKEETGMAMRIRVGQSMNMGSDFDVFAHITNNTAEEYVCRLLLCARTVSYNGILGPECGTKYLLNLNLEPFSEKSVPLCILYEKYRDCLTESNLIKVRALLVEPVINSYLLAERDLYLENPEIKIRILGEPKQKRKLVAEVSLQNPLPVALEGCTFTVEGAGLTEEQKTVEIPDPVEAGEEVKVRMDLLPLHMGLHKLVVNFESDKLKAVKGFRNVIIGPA
# procedure.details: Irreversible inhibition of recombinant human TG2 expressed in Escherichia coli BL21 assessed as Kinact using AL5 as substrate by continuous chromogenic assay
Hi! Could you tag entries with Kinact below 2 min⁻¹ as yes (1), and those at or above as no (0)? Much appreciated.

The following molecules have reported results that may help.
C=CC(=O)NCCCC[C@H](NC(=O)OCc1ccccc1)C(=O)N1CCN(C(=O)[C@H](C)NC(=O)c2cccc3ccccc23)CC1    yes (1)
C=CC(=O)NCCCC[C@H](NC(=O)OCc1ccccc1)C(=O)N1CCN(C(=O)[C@H](Cc2ccccc2)NC(=O)c2cccc3ccccc23)CC1    yes (1)
C=CC(=O)NCCCC[C@H](NC(=O)OCc1ccccc1)C(=O)N1CCN(C(=O)[C@@H](NC(=O)c2cccc3ccccc23)C(C)CC)CC1 (some centres not stated)    no (0)
C=CC(=O)NCCCC[C@H](NC(=O)Cc1ccccc1C)C(=O)N1CCN(C(=O)[C@@H](C)NC(=O)c2cccc3ccccc23)CC1    no (0)
C=CC(=O)NCCCC[C@H](NC(=O)Cc1ccccc1OC)C(=O)N1CCN(C(=O)[C@H](C)NC(=O)c2cccc3ccccc23)CC1    yes (1)

Shifting focus to the molecule that follows.
Q: Hi there! Is Kinact for `C=CC(=O)NCCCC[C@H](NC(=O)Cc1ccc(F)cc1F)C(=O)N1CCN(C(=O)[C@H](C)NC(=O)c2cccc3ccccc23)CC1` below 2 min⁻¹, do you know?
A: yes (1)
